assayed_system: T1, MPDZ_6, O75970
T1 sequence (O75970 1003-1099, limits assumed, looked up): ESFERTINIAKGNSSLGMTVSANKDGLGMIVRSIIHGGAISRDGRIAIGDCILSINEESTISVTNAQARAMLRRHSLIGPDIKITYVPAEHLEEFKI
test: holdup assay
Set-up: key: below the threshold = too weak to quantify, mostly under pKd 3.1 to 4
condition_context: plain residues with an end cap or a label only (N-terminal biotin on a linker: ttds)

{"columns": ["binder", "pKd"],
 "data": [
  ["SRPQRTQTQV [HPV67-E6, A4U7F2]", "below the threshold"],
  ["SSRTRRETQL [HPV16-E6, P03126]", "below the threshold"],
  ["SVWLRKETRV [CYSLTR2, Q9NS75]", "below the threshold"],
  ["STLTIFETAL [ABCC4, O15439]", "below the threshold"],
  ["QSARYRDTEL [TJP2, Q9UDY2]", "below the threshold"],
  ["PKTPPTDTSV [KIR3DL3, Q8N743]", "below the threshold"],
  ["RSLEEEESQL [GRASP, Q7Z6J2]", "below the threshold"]
]}
